For each entry below, report its solubility (g/100 g solution) value.
Assay: xn = mol fraction of the nth substance listed, in the solute-free solvent
Settings: 323.15 K; x2 = 0.9
Answer with a number only.

Supply recorded solubility (g/100 g solution) for O=C(O)c1ccc(C(=O)O)o1 + C1COCCO1 + O here.
1.93

Assign solubility (g/100 g solution) to the following record: COC1=CC(=O)CC(C)C12Oc1c(Cl)c(OC)cc(OC)c1C2=O (stereo not given) + CC(=O)CC(C)C + CC(C)O
1.68

Quote solubility (g/100 g solution) reported for O=C(O)c1ccc(C(=O)O)o1 + O + COCCOCCOC please.
4.64

Indicate its recorded solubility (g/100 g solution); the molecule in question is COC1=CC(=O)CC(C)C12Oc1c(Cl)c(OC)cc(OC)c1C2=O (stereo not given) + CCC(C)=O + CC(C)O
4.41

Using known records, supply solubility (g/100 g solution) for CC(=O)OC(c1ccccc1)C(Cl)(Cl)Cl (stereo not given) + CCO + O
20

In one line, give reported solubility (g/100 g solution) of the entry COC1=CC(=O)CC(C)C12Oc1c(Cl)c(OC)cc(OC)c1C2=O (stereo not given) + CC(C)=O + CC(C)O .
5.53

Specify measured solubility (g/100 g solution) for CCCCOc1ccc(C(=O)CCN2CCCCC2)cc1.Cl + CCO + CCOC(C)=O .
55.5

Find the measured solubility (g/100 g solution) of O=C(O)c1ccc(C(=O)O)o1 + O + COCCOC and report it.
5.11

Consider the molecule CC(=O)OC(c1ccccc1)C(Cl)(Cl)Cl (stereo not given) + CC(=O)O + O and give its recorded solubility (g/100 g solution).
33.8

Return solubility (g/100 g solution) for the following molecule: CCCCOc1ccc(C(=O)CCN2CCCCC2)cc1.Cl + CCO + CCCCCC
54.9

====

Experiment: xn = mol fraction of the nth substance listed, in the solute-free solvent
Details: 278.15 K; x2 = 0.8
Please enter T where solubility (g/100 g solution) is greater than or equal to 2, and F where it is lower.

Check this compound for solubility (g/100 g solution) at or above 2: CCCCOc1ccc(C(=O)CCN2CCCCC2)cc1.Cl + CCO + O
T

Dear colleague, could you confirm whether O=C1CCc2ccc(OCCCCN3CCN(c4cccc(Cl)c4Cl)CC3)cc2N1 + CCC(C)=O + CCCO has solubility (g/100 g solution) at or above 2?
F

I'd appreciate it if you could say whether CCCCOc1ccc(C(=O)CCN2CCCCC2)cc1.Cl + CO + C1CCOC1 has solubility (g/100 g solution) at least equal to 2.
T

Is solubility (g/100 g solution) at least 2? Consider O=C1CCc2ccc(OCCCCN3CCN(c4cccc(Cl)c4Cl)CC3)cc2N1 + CCC(C)=O + CC(C)=O
F

Would you say CCCCOc1ccc(C(=O)CCN2CCCCC2)cc1.Cl + CCO + CCOC(C)=O shows solubility (g/100 g solution) at minimum 2?
T

# check: solubility (g/100 g solution) of CCCCOc1ccc(C(=O)CCN2CCCCC2)cc1.Cl + CCO + CCCCCC is greater than or equal to 2
T

Check the entry O=C1CCc2ccc(OCCCCN3CCN(c4cccc(Cl)c4Cl)CC3)cc2N1 + CCC(C)=O + CCOC(C)=O : does solubility (g/100 g solution) equal or exceed 2?
F
